Provenance of the data: patent US20250143290A1

Test: physchem
Conditions: organic solvent or mixture, thermodynamic from solid, Solubility in saturation
solubility values for the compounds below.
Hey, just the number and the unit after it is fine.

Study these solved cases before continuing.
CC(COc1ccc(Oc2ccccc2)cc1)Oc1ccccn1 (stereo not shown) [Pyriproxyfen]: 631 mg/mL
CC1(C)CCC(Cc2ccc(Cl)cc2)C1(O)Cn1cncn1 (stereo not shown) [Metconazole]: 210 mg/mL
CC(C)(C)C(O)(CCc1ccc(Cl)cc1)Cn1cncn1 (stereo not shown) [Tebuconazole]: 181 mg/mL

# ---- query compound ----
Inquiry: Find the measured solubility of Nc1c(Cl)c(F)nc(OCC(=O)O)c1Cl [Fluroxypyr] and report it.
Reply text: 537 mg/mL
